# ASSAY PROCEDURE: Human HepG2 cell viability assay in 384 well format
# Format: toxicity, cell-based
# Set-up: dose 125 nL, time 70.5 hour; concentration not given beside the values
# PARTICULARS: HepG2 cells, read-out: Inhibition
PARAMETER: cytotoxicity at 70.5 h (%)
Number in %, nothing else.

Which measured cytotoxicity at 70.5 h value corresponds to CC(C)OCCCNC(=O)c1c(-n2cnnn2)sc2c1CCCC2 ?
-25.4

Which measured cytotoxicity at 70.5 h value corresponds to OCCOc1ccc(NCc2cccc3[nH]ccc23)cn1 ?
-3.37

Which measured cytotoxicity at 70.5 h value corresponds to CN1C(=O)CC(c2cnn(C)c2)C12CCN(C(=O)c1ccco1)CC2 (stereo not given) ?
-6.73

Which measured cytotoxicity at 70.5 h value corresponds to CNc1cccc(CC2COCCN(C(=O)c3cnn(C)c3)C2)n1 (stereo not given) ?
-0.46

Which measured cytotoxicity at 70.5 h value corresponds to O=C1CC2(CCCC2)CC(=O)N1CCn1cnnc1 ?
-8.05

Which measured cytotoxicity at 70.5 h value corresponds to Cc1noc([C@@]23CCO[C@@H]2CCN(S(=O)(=O)c2cccnc2)C3)n1 ?
-6.17

Which measured cytotoxicity at 70.5 h value corresponds to Cc1ccc(C)c(CN2CCCn3nc(CNS(C)(=O)=O)cc3C2)c1 ?
15.4

Which measured cytotoxicity at 70.5 h value corresponds to Cc1occc1C(=O)N1CCCC2(CCN(CCN3CCCC3)C2=O)C1 (stereo not given) ?
-11.9

Which measured cytotoxicity at 70.5 h value corresponds to CC(C)C1=NOC2(CCN(S(C)(=O)=O)CC2)C1 ?
-12.4

Which measured cytotoxicity at 70.5 h value corresponds to Cc1oc(-c2nc(C#N)c(NC3CC3)o2)cc1S(=O)(=O)N1CCCC1 ?
-25.9

Which measured cytotoxicity at 70.5 h value corresponds to COCC(=O)N1CCCC(C(=O)c2cnn(-c3ccc(F)cc3)c2N)C1 (stereo not given) ?
9.29

Which measured cytotoxicity at 70.5 h value corresponds to O=C(CCC1CCCCC1)NS(=O)(=O)CC1CC1 ?
14.7

Which measured cytotoxicity at 70.5 h value corresponds to O=C(Cc1cn2ccsc2n1)N(Cc1ccco1)CC1CCCO1 (stereo not given) ?
7.91

Which measured cytotoxicity at 70.5 h value corresponds to NC(=O)C1(CCCc2ccccn2)CCCN(CCO)C1 (stereo not given) ?
-4.87

Which measured cytotoxicity at 70.5 h value corresponds to CN(C)C(=O)c1c[nH]nc1C1CCN(S(=O)(=O)c2ccccc2)CC1 ?
-1.91

Which measured cytotoxicity at 70.5 h value corresponds to CN(Cc1cccc(-n2cccn2)c1)Cc1cccs1 ?
-11

Which measured cytotoxicity at 70.5 h value corresponds to CCOc1ncccc1CNc1nnc(C)c(C)c1C#N ?
-0.879

Which measured cytotoxicity at 70.5 h value corresponds to Fc1ccccc1CN1C[C@@H]2CN(Cc3cccnc3)CCO[C@@H]2C1 ?
-11.8

Which measured cytotoxicity at 70.5 h value corresponds to CCCc1nnc(N2CCC3(CC2)CN(C)C(=O)O3)o1 ?
2.82

Which measured cytotoxicity at 70.5 h value corresponds to COCCN1CCN(CC2CCCCO2)CC1 (stereo not given) ?
38.7

Which measured cytotoxicity at 70.5 h value corresponds to c1ccc(-c2nnc3sc(CCN4CCCC4)nn23)cc1 ?
-5.25

Which measured cytotoxicity at 70.5 h value corresponds to Cc1ccc(O)c(CN(Cc2ccccc2)Cc2nccs2)n1 ?
-4.83

Which measured cytotoxicity at 70.5 h value corresponds to O=C(NCCNc1ncccn1)NCCSC(F)(F)F ?
-10.7

Which measured cytotoxicity at 70.5 h value corresponds to CC(C)c1nnc2n1CCN(CC(=O)Nc1sccc1C#N)C2 ?
13.5

Which measured cytotoxicity at 70.5 h value corresponds to Cc1ccccc1C(C)(C)CNC(=O)CCSc1nnnn1C ?
-1.67
